Biological target: thromboxane synthetase from lysed human platelets (Homo sapiens)
Construct: crude microsomal preparation of thromboxane synthetase from lysed human platelets; from tissue; host or cells: human platelets, lysed; crude microsomal preparation
Sequence (P24557 whole entry): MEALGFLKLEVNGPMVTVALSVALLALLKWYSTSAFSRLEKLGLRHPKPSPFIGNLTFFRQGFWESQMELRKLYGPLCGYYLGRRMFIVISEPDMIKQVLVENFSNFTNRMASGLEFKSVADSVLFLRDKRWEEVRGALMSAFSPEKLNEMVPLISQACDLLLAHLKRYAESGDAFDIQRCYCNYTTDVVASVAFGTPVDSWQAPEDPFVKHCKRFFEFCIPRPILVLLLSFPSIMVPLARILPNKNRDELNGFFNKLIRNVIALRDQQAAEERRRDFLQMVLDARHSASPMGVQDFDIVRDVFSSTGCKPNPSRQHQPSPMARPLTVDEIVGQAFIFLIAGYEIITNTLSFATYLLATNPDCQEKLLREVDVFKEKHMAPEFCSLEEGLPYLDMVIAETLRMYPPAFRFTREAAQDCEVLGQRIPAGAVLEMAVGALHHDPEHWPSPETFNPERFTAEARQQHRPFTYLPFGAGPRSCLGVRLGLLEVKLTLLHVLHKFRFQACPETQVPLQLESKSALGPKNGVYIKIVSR
Test: in vitro inhibition of the thromboxane synthetase enzyme (TxB2/PGF2α+β ratio from 14C-arachidonic acid)
Format: biochemical
Conditions: human platelet microsomal enzyme, 30 minutes incubation
pIC50: −log10 of the molar value.
Observation Type: pIC50

IN: Endpoint output: pIC50 of O=C(O)CCCCCc1cccc2cncn12 [Example 2] . Value?
OUT: ~8.52

---

Biological target: prostaglandin cyclooxygenase (sheep seminal vesicle microsomes) (Ovis aries, UniProt P05979)
Sequence (P05979 25-600): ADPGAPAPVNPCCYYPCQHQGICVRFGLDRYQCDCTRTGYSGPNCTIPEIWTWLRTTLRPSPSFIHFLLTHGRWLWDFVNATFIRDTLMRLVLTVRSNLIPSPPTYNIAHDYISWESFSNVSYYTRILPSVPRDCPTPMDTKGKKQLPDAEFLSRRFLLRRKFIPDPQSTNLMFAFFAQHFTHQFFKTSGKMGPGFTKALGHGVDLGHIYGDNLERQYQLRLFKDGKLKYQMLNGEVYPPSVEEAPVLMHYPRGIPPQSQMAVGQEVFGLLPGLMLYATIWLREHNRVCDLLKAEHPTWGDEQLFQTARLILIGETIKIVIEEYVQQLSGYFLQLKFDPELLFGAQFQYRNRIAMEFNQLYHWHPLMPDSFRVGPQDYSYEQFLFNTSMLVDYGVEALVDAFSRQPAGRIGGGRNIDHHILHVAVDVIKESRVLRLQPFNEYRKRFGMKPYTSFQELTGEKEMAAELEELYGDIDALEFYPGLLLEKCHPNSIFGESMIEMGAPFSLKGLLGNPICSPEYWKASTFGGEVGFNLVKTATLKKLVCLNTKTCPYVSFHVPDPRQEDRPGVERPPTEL
Observation Type: IC50

IN: Reported IC50 for O=C(O)CCCCCc1cccc2cncn12 [Example 2] : what is it?
OUT: > 100 µM
